- TESTED ON: Neu5Ac(a2-3)Gal(b1-4)GlcNAc
- EXPERIMENT: glycan array binding signal (z-score within array); higher = stronger binding
- CONDITION CONTEXT: glycan notation: IUPAC condensed, linker removed
Shown is part of a subset that was picked to be rich in the strongest signals.
MEASURED METRIC: glycan array binding signal (z-score)
Respond using a number only.

BINDER	REPORTED
CpGal16 (Clavelina picta) (protein) MAKMITNYVGKRIECIMVATDMMSTVFSLASATGDLPFYINFRQRENSIVMNTRVHGKWQYEKSQSSGGMNFYEPFRLVVEVRPSVFKVTVSTMGEEDGITFNLQYSQITIKPDEIVAMHLGYCNLRSELLVTDL	-0.378
Tachylectin-2 (Tachypleus tridentatus), TAL2_TACTR (protein) VGGESMLRGVYQDKFYQGTYPQNKNDNWLARATLIGKGGWSNFKFLFLSPGGELYGVLNDKIYKGTPPTHDNDNWMGRAKKIGNGGWNQFQFLFFDPNGYLYAVSKDKLYKASPPQSDTDNWIARATEIGSGGWSGFKFLFFHPNGYLYAVHGQQFYKALPPVSNQDNWLARATKIGQGGWDTFKFLFFSSVGTLFGVQGGKFYEDYPPSYAHDNWLARAKLIGNGGWDDFRFLFF	-0.374
NPA (Narcissus pseudonarcissus), C0HM45 (protein) DNILYSGETLSPGEFLNNGRYVFIMQEDCNLVLYDVDKPIWATNTGGLDRRCHLSMQSDGNLVVYSPRNNPIWASNTGGENGNYVCVLQKDRNVVIYGTARWATGTNIH	-0.154
DC SIGN CRD (Homo sapiens), Q9NNX6 (protein) QPCPWEWTFFQGNCYFMSNSQRNWHDSITACKEVGAQLVVIKSAEEQNFLQLQSSRSNRFTWMGLSDLNQEGTWQWVDGSPLLPSFKQYWNRGEPNNVGEEDCAEFSGNGWNDDKCNLAKFWICKKSAWSHPQFEK	-0.387

Look up and report measured glycan array binding signal (z-score) for this entry: LICBM33A (Lactococcus lactis), Q9CE94 (protein) MKKLLTGLLVAAGLLSVSLLIKTDTVSAHGYVQSPPARGYQGQLDSQSLGWTAAFNIYGNVISNPQSLEAPKGFPECGPADGRIASANGGLGQIGDFVLDNQTSSRWKKTSISTGSNIFTWKYTAPHKTTKWHYYMTKTGWDQNAPLKHSELELIGTINHDGSPATNNLSHTINIPTDRSGYHIVLAVWDVADTSNAFYNVIDINVNNKNASSQVFGPFL 0.435

Attribution: the supplement of paper PMC8728848
